- study.system: fatty acid amide hydrolase (FAAH) (Rattus norvegicus (Rat))
- Sequence (P97612 whole entry): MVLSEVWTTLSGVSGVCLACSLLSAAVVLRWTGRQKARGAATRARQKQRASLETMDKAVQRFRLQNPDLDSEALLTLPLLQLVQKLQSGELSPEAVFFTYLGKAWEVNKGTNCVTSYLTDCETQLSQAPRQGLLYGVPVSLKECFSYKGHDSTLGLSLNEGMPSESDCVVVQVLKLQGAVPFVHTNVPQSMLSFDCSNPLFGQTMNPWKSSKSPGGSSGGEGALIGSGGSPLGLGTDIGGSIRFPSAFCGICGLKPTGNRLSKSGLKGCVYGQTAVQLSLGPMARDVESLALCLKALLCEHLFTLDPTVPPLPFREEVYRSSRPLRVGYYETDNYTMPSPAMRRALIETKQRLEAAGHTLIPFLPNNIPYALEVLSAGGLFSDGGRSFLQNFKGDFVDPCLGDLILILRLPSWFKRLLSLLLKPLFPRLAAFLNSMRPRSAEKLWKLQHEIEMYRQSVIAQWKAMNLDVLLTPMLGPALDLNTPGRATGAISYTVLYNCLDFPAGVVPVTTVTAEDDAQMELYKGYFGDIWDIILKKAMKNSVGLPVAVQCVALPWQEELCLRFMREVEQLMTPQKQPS
- protocol: FAAH enzyme assay: inhibition of anandamide (AEA) hydrolysis, arachidonic acid quantified by HPLC
- Type: biochemical
- condition.set: one-point assay, inhibitor 100 μM; partially purified rat brain FAAH, 15 min; read-out: % Inhibition (Concentration)
assay.readout: inhibition at 100 µM (%)
Value expressed in %; do not type the unit.

// inhibition at 100 µM lookup, key: `O=C(c1cccc(-c2cccc(OCc3ccccc3)c2)c1)C(F)(F)F` 33

// inhibition at 100 µM lookup, key: `O=C(Nc1ccc(Br)cc1)OC1CCCCC1` 25

// inhibition at 100 µM lookup, key: `O=C(CCCCOc1cccc(OCc2ccccc2)c1)C(F)(F)F` 97

// inhibition at 100 µM lookup, key: `O=C(CCCCCOc1ccccc1O)C(F)(F)F` 82

// inhibition at 100 µM lookup, key: `O=S(=O)(F)CCCCCCCc1ccccc1OCc1ccccc1` 100

// inhibition at 100 µM lookup, key: `CCCCCCC(C)(C)c1cc(O)c(-c2ccc(NC(=O)OC3CCCCC3)cc2)c(O)c1` 23

// inhibition at 100 µM lookup, key: CCOC(=O)C(=O)c1ccc(Br)cc1 [Compound 91.5, Ethyl 2-(4-bromophenyl)-2-oxoacetate] 79

// inhibition at 100 µM lookup, key: `Cc1nnc(C(=O)C(F)(F)c2ccc(Br)cc2)o1` 97

// inhibition at 100 µM lookup, key: `O=C(c1ccc(-c2ccccc2)cc1)C(F)(F)c1ccccn1` 61

// inhibition at 100 µM lookup, key: `O=C(CCCCOc1cccc(O)c1)C(F)(F)F` 85

// inhibition at 100 µM lookup, key: `O=C1c2ccccc2S(=O)(=O)N1CCCCOc1ccc(OCc2ccccc2)cc1` 87

// inhibition at 100 µM lookup, key: `O=C(CCCCCOc1cccc(OCc2ccccc2)c1)C(F)(F)F` 96
